Reference source: ChEMBL document CHEMBL3244168

test system: L1210; assay: Ratio of Cmax to Cmin for antileukemic activity against mouse L1210 cells allografted in po dosed BDF1 mouse assessed as survival over 60 days; format: functional
Here the recorded Ratio is given for each entry.
Assay Endpoint: Ratio

[
  {
    "Compound": "O=P1(NCCCl)OCCCN1CCCl (centres undefined) [IFOSFAMIDE]",
    "Result": 1
  },
  {
    "Compound": "CN(CCCl)P1(=O)OCCC(OO)N1CCOS(C)(=O)=O (centres undefined)",
    "Result": 4
  },
  {
    "Compound": "O=P1(N(CCCl)CCCl)NCCCO1 (centres undefined) [CYCLOPHOSPHAMIDE ANHYDROUS]",
    "Result": 1
  },
  {
    "Compound": "O=P1(NCCCl)OCCC(OO)N1CCCl (centres undefined)",
    "Result": 1
  }
]

###

test system: L1210; assay: Cytotoxicity against mouse L1210 cells assessed as growth inhibition after 72 hrs; type: functional; details: L1210, 72 h, read-out: ED50 (the source's name)
EC50 strictly under 0.8 µg/mL means condition met; at 0.8 µg/mL or over means condition not met.

[
  {
    "Compound": "CS(=O)(=O)OCCNP1(=O)OCCC(OO)N1CCOS(C)(=O)=O (stereo not drawn)",
    "Target Of Assay": "L1210",
    "Answer Label": "condition not met"
  },
  {
    "Compound": "CCS(=O)(=O)OCCN1C(OO)CCOP1(=O)N(C)CCCl (stereo not drawn)",
    "Target Of Assay": "L1210",
    "Answer Label": "condition not met"
  },
  {
    "Compound": "CS(=O)(=O)OCCN1C(OO)CCOP1(=O)N(CCCl)CCCl (stereo not drawn)",
    "Target Of Assay": "L1210",
    "Answer Label": "condition met"
  },
  {
    "Compound": "CN(CCCl)P1(=O)OCCC(OO)N1CCBr (stereo not drawn)",
    "Target Of Assay": "L1210",
    "Answer Label": "condition met"
  },
  {
    "Compound": "CN(CCBr)P1(=O)OCCC(OO)N1CCCl (stereo not drawn)",
    "Target Of Assay": "L1210",
    "Answer Label": "condition met"
  },
  {
    "Compound": "O=P1(NCCCl)OCCC(OO)N1CCCl (stereo not drawn)",
    "Target Of Assay": "L1210",
    "Answer Label": "condition not met"
  },
  {
    "Compound": "CN(CCBr)P1(=O)OCCC(OO)N1CCOS(C)(=O)=O (stereo not drawn)",
    "Target Of Assay": "L1210",
    "Answer Label": "condition not met"
  },
  {
    "Compound": "CCN(CCCl)P1(=O)OCCC(OO)N1CCOS(C)(=O)=O (stereo not drawn)",
    "Target Of Assay": "L1210",
    "Answer Label": "condition met"
  },
  {
    "Compound": "CN(CCOS(C)(=O)=O)P1(=O)OCCC(OO)N1CCCl (stereo not drawn)",
    "Target Of Assay": "L1210",
    "Answer Label": "condition met"
  },
  {
    "Compound": "O=P1(NCCBr)OCCC(OO)N1CCBr (stereo not drawn)",
    "Target Of Assay": "L1210",
    "Answer Label": "condition not met"
  }
]

###

system: L1210; test: Ratio of ILSmax to ILS30 for antileukemic activity against mouse L1210 cells allografted in ip dosed BDF1 mouse; type: functional
Kind request: treat 10 as inclusive, so Ratio at 10 or higher is true (1), anything lower is false (0).

[
  {
    "Compound": "CN(CCOS(C)(=O)=O)P1(=O)OCCC(OO)N1CCCl (stereo not drawn)",
    "Target Of Assay": "L1210",
    "Answer Label": "true (1)"
  },
  {
    "Compound": "CS(=O)(=O)OCCN1C(OO)CCOP1(=O)NCCCl (stereo not drawn)",
    "Target Of Assay": "L1210",
    "Answer Label": "true (1)"
  },
  {
    "Compound": "CN(CCCl)P1(=O)OCCC(OO)N1CCBr (stereo not drawn)",
    "Target Of Assay": "L1210",
    "Answer Label": "false (0)"
  },
  {
    "Compound": "CCS(=O)(=O)OCCN1C(OO)CCOP1(=O)N(C)CCCl (stereo not drawn)",
    "Target Of Assay": "L1210",
    "Answer Label": "true (1)"
  },
  {
    "Compound": "CCN(CCCl)P1(=O)OCCC(OO)N1CCOS(C)(=O)=O (stereo not drawn)",
    "Target Of Assay": "L1210",
    "Answer Label": "true (1)"
  },
  {
    "Compound": "O=P1(NCCCl)OCCC(OO)N1CCCl (stereo not drawn)",
    "Target Of Assay": "L1210",
    "Answer Label": "false (0)"
  },
  {
    "Compound": "CS(=O)(=O)OCCN1C(OO)CCOP1(=O)N(CCCl)CCCl (stereo not drawn)",
    "Target Of Assay": "L1210",
    "Answer Label": "false (0)"
  },
  {
    "Compound": "CCS(=O)(=O)OCCN(C)P1(=O)OCCC(OO)N1CCCl (stereo not drawn)",
    "Target Of Assay": "L1210",
    "Answer Label": "false (0)"
  },
  {
    "Compound": "CN(CCBr)P1(=O)OCCC(OO)N1CCCl (stereo not drawn)",
    "Target Of Assay": "L1210",
    "Answer Label": "true (1)"
  },
  {
    "Compound": "CN(CCBr)P1(=O)OCCC(OO)N1CCOS(C)(=O)=O (stereo not drawn)",
    "Target Of Assay": "L1210",
    "Answer Label": "true (1)"
  },
  {
    "Compound": "O=P1(NCCBr)OCCC(OO)N1CCBr (stereo not drawn)",
    "Target Of Assay": "L1210",
    "Answer Label": "true (1)"
  },
  {
    "Compound": "CS(=O)(=O)OCCNP1(=O)OCCC(OO)N1CCOS(C)(=O)=O (stereo not drawn)",
    "Target Of Assay": "L1210",
    "Answer Label": "false (0)"
  },
  {
    "Compound": "CN(CCCl)P1(=O)OCCC(OO)N1CCOS(C)(=O)=O (stereo not drawn)",
    "Target Of Assay": "L1210",
    "Answer Label": "true (1)"
  }
]

###

test system: L1210; assay: Antileukemic activity against mouse L1210 cells allografted in ip dosed BDF1 mouse assessed as maximum tolerated dose for survival over 30 days administered 24 hrs; assay type: functional
Assay Endpoint: ILSmax (mg/kg)

[
  {
    "Molecule": "O=P1(NCCCl)OCCC(OO)N1CCCl (configuration not stated)",
    "Result": 100
  },
  {
    "Molecule": "CS(=O)(=O)OCCN1C(OO)CCOP1(=O)N(CCCl)CCCl (configuration not stated)",
    "Result": 80
  },
  {
    "Molecule": "CN(CCCl)P1(=O)OCCC(OO)N1CCOS(C)(=O)=O (configuration not stated)",
    "Result": 80
  },
  {
    "Molecule": "CN(CCBr)P1(=O)OCCC(OO)N1CCCl (configuration not stated)",
    "Result": 70
  },
  {
    "Molecule": "CS(=O)(=O)OCCNP1(=O)OCCC(OO)N1CCOS(C)(=O)=O (configuration not stated)",
    "Result": 50
  },
  {
    "Molecule": "CN(CCCl)P1(=O)OCCC(OO)N1CCBr (configuration not stated)",
    "Result": 35
  },
  {
    "Molecule": "CCS(=O)(=O)OCCN1C(OO)CCOP1(=O)N(C)CCCl (configuration not stated)",
    "Result": 70
  }
]

###

system: L1210; experiment: Antileukemic activity against mouse L1210 cells allografted in ip dosed BDF1 mouse assessed as maximum tolerated dose for survival over 30 days administered 24 hrs; assay type: functional
Overview of reported ILSmax across a group of molecules:
Assay Endpoint: ILSmax (mg/kg)

[
  {
    "Molecule": "CCS(=O)(=O)OCCN(C)P1(=O)OCCC(OO)N1CCCl (stereo unspecified)",
    "Result": 80
  },
  {
    "Molecule": "CN(CCBr)P1(=O)OCCC(OO)N1CCOS(C)(=O)=O (stereo unspecified)",
    "Result": 60
  },
  {
    "Molecule": "O=P1(NCCBr)OCCC(OO)N1CCBr (stereo unspecified)",
    "Result": 70
  },
  {
    "Molecule": "CCN(CCCl)P1(=O)OCCC(OO)N1CCOS(C)(=O)=O (stereo unspecified)",
    "Result": 70
  },
  {
    "Molecule": "CS(=O)(=O)OCCN1C(OO)CCOP1(=O)NCCCl (stereo unspecified)",
    "Result": 75
  },
  {
    "Molecule": "CN(CCOS(C)(=O)=O)P1(=O)OCCC(OO)N1CCCl (stereo unspecified)",
    "Result": 60
  }
]
